target under test: Prothrombin (Homo sapiens)
assay method text: human alpha-thrombin inhibitors, primary screen, counter-screen for coagulation protease inhibitor project, biochemical, 1536-well, fluorogenic AMC substrate (AID 1046)
run parameters: Boc-VPR-AMC fluorogenic substrate cleavage, at 5 µM
Among all 220,000 compounds or so, about 560 (0.25%) were called active.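 How the source made its calls: active means inhibition at or above 40%; inactive means inhibition below 40%.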 This is one part of a sample in which actives are shown more often than they occur.
Outcome codes: active, inactive

| compound | assigned label |
| --- | --- |
| CCc1nnc(NC(=O)CCC(=O)O)s1 | inactive |
| O=C(NC(=S)Nc1cc(C(F)(F)F)ccc1N1CCOCC1)c1ccc(-c2cccc(Cl)c2)o1 | inactive |
| CCn1ncc(CNC(=O)C2(C)CC2(Br)Br)c1C (centres undefined) | inactive |
| O=C1N(c2ccccc2)C(=Nc2ccccc2)SC12CC2 | inactive |
| O=C(c1ccccc1Cl)N(Cc1ccccc1F)N1C(=O)CCCC1=O | inactive |
| ClC1(Cl)CC1CSc1ncn[nH]1 (centres undefined) | active |
| CC(C)(C)C1CCC(OC(=O)CCC(=O)Nc2ccccc2)CC1 (centres undefined) | inactive |
| COc1ccccc1-c1noc(CSc2nc(C)cc(=O)[nH]2)n1 | inactive |
| CC(=O)NNC(=O)c1csc(Cc2c(Cl)sc3ccc(Cl)cc23)n1 | inactive |
| Nc1ccccc1Sc1cc(Cl)nnc1Cl | inactive |
| COc1ccc(Cl)cc1CSc1ncn[nH]1 | inactive |
| O=C(CC1C(=O)NCCN1Cc1ccc(-c2ccccc2)cc1)NCC1CCOCC1 (centres undefined) | inactive |
| S=C(Nc1ccc(Br)cc1Cl)N1CCC2(CC1)OCCO2 | inactive |
| CCNC(=S)NNC(=O)C1CCN(Cc2ccccc2)CC1 | inactive |
| CCc1nnc(NC(=O)CCN(c2ccc(C)cc2)S(=O)(=O)c2ccccc2)s1 | active |
| CN1CCN(c2ncc3c(n2)CC(c2ccccc2F)CC3=O)CC1 (centres undefined) | inactive |
| CCN(CC)C(=O)N(CC)Cc1ccccc1 | inactive |
| O=C(Nc1nnc(COc2ccccc2)s1)Nc1ccccc1F | inactive |
| CC(C)CC(CC(C)C)=NNC(=O)c1ccc(CSc2nncn2C)cc1 | inactive |
| CCOC(=O)N/N=C1\CC(C)S(=O)(=O)c2ccc(Cl)cc21 (centres undefined) | inactive |
| Cc1ccc2cc(C)c(N3CCC(C)CC3)nc2c1 | inactive |
| O=C(c1cccc([N+](=O)[O-])c1)N1CCN(C(=O)c2ccco2)CC1 | inactive |
| CCOC(=O)C1CCN(c2ccc(C(=O)O)cc2[N+](=O)[O-])CC1 | inactive |
| CC1(C)Cc2cccc(OCC(=O)N3CCN(c4ccc([N+](=O)[O-])cc4)CC3)c2O1 | inactive |

---

target under test: Prothrombin (Homo sapiens) (UniProt P00734)
assay method text: human alpha-thrombin inhibitors, primary screen, counter-screen for coagulation protease inhibitor project, biochemical, 1536-well, fluorogenic AMC substrate (AID 1046)
run parameters: Boc-VPR-AMC fluorogenic substrate cleavage, at 5 µM
Screen size: about 220,000 compounds; about 560 (0.25%) were called active.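 How the source made its calls: active means inhibition at or above 40%; inactive means inhibition below 40%.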 This excerpt belongs to a sample that is enriched for actives.
Outcome codes: active, inactive

| molecule | assigned label |
| --- | --- |
| Cc1ccc(CN2CCN(Cc3cn(C)nc3-c3ccccc3)CC2CCO)o1 (stereo not drawn) | inactive |
| COCC1CCCN(Cc2cn[nH]c2-c2cc3ccccc3o2)C1 (stereo not drawn) | inactive |
| O=C(NC1CCN(Cc2ccccc2)CC1)c1cc(Br)c(Br)[nH]1 | inactive |
| Cc1nc2cc(NC(=O)Nc3cccc(F)c3)ccc2n1C | inactive |
| COc1ccc(C/C(C)=N/NC(=O)c2cc(C)oc2C)cc1 | inactive |
| Cc1c([N+](=O)[O-])c(N)nn1C | inactive |
| O=C(Cc1ccccc1)n1nc(-c2ccccc2)nc1NCc1ccco1 | active |
| C=CCC(Nc1ccccc1)c1cccc(OC)c1OC (stereo not drawn) | inactive |
| CC(=O)NC(NC(=S)Nc1c(C)n(C)n(-c2ccccc2)c1=O)C(Cl)(Cl)Cl (stereo not drawn) | inactive |
| COc1c(C)cc(C(=O)C2CCCN(S(=O)(=O)c3c(C)noc3C)C2)cc1C (stereo not drawn) | active |
| CN(C)c1cc(-c2ccc(F)cc2)oc(=O)c1Cl | inactive |
| O=C(c1[nH]ncc1-c1ccc(Cl)cc1)C1CO1 (stereo not drawn) | inactive |
| COc1ccc(CC(=O)n2nc(-c3cccnc3)nc2N)cc1 | active |
| c1ccc(-c2nc(NCc3ccco3)c3ccccc3n2)cc1 | inactive |
| Cc1ccc(C(=O)Nc2sc(Cc3ccc4c(c3)OCO4)c(C)c2C(N)=O)cc1 | inactive |
| CC(C)S(=O)(=O)c1csc(NC(=O)Nc2ccc(Cl)cc2)c1Cl | inactive |
| CSCC[C@H](NC(=O)NC1CCCC1)C(=O)O | inactive |
| CCc1ccccc1NC(=O)CN(C)S(=O)(=O)c1ccc2c(c1)c(=O)n(C)c(=O)n2C | inactive |
| C=CCN(C(=O)Nc1ccc2c(c1)nc(C)n2C)c1ccccc1 | active |
| Cc1ccc(SC(C)C(=O)NCc2ccc(F)cc2)cc1 (stereo not drawn) | inactive |
| O=S(=O)(c1cccc(C(F)(F)F)c1)N1CCN(c2cnccn2)CC1 | inactive |
| COc1cccc(NC(=O)C2CCCN2C(=O)OCc2ccccc2)c1 (stereo not drawn) | inactive |
| Cc1ccc(NC(=O)C2CCCN(S(=O)(=O)c3c(C)noc3C)C2)c(C)c1 (stereo not drawn) | inactive |
| CC1(C)CC(=O)c2cnc3nc4ccccc4n3c2C1 | inactive |
| Cc1ccc(C)c(NC(=O)C2Cc3ccccc3CN2C(=O)OCc2ccccc2)c1 (stereo not drawn) | active |
| COC(=O)C(NS(=O)(=O)c1ccc(F)cc1)c1ccccc1 (stereo not drawn) | inactive |
| Nc1nc(NCCCN2CCOCC2)nc(Nc2ccccc2)c1[N+](=O)[O-] | inactive |
| CC(=O)NCCC(=O)Nc1nc(C)c(Cc2ccc3c(c2)OCO3)s1 | inactive |
| S=c1[nH]nc(-c2ccncc2)n1/N=C/c1ccccc1Cl | inactive |
| CC(=O)OCCOCn1cnn2c(=O)c(Br)c(C)nc12 | inactive |
| Cc1cc(C)n2nc(C(=O)N(C)C(c3ccccc3)c3ccccc3)nc2n1 | inactive |
| CCCN1C(=O)C(Cc2nc3ccccc3c(=O)n2-c2ccccc2)c2cc(C)ccc21 (stereo not drawn) | inactive |
| Cc1ccc(S(=O)(=O)/N=C(\CN2CCOCC2)N2CCOCC2)cc1 | inactive |
| Cc1ccc(S(=O)(=O)N(C)C)cc1NC(=O)/C=C/c1cccs1 | inactive |
| Cc1ccc(NC(=S)NCCN2CCOCC2)cc1 | inactive |
| CN(C)C(CNC(=O)c1cccc(C#N)c1)c1ccco1 (stereo not drawn) | inactive |
| O=C(NNC(=S)Nc1ccc(F)cc1)[C@H]1C[C@@H]1c1ccccc1 | inactive |
| O=C(Cn1cnc([N+](=O)[O-])n1)NCCc1ccccc1 | inactive |
| CCC(=O)NCc1cc(-c2nn(C)c(=O)c3ccccc23)ccc1OC | inactive |
| C=CCN(C(=O)Nc1ccc2oc(C)nc2c1)c1ccccc1 | inactive |
| O=C(CCCOc1ccc(Cl)cc1Cl)NNC(=O)C1CCC1 | inactive |
| COc1ccc(S(=O)(=O)N2CCC(C(=O)OCC(=O)c3ccccc3)CC2)cc1[N+](=O)[O-] | inactive |
| O=C(CSc1cccc[n+]1[O-])c1ccc(Cl)cc1 | inactive |
